// compounds with pKi on UniProt P28564, multi-source literature
pKi: −log10 of the molar value.
quantity: pKi

{"compound": "C1=C(CCN2CCN(c3cccc4c3OCCO4)CC2)Cc2ccccc21", "valueOperator": "=", "experimentalValue": 6.03}
{"compound": "C1=C(CN2CCOCC2)COc2c1cccc2OCC1COCCN1 (stereo not drawn)", "valueOperator": "=", "experimentalValue": 7.33}
{"compound": "COc1cccc2c1C1CCN(CCCCN3C(=O)c4ccccc4S3(=O)=O)CC1C2 (stereo not drawn)", "valueOperator": "=", "experimentalValue": 6.49}
{"compound": "C1=C(CCN2CCN(c3cccc4c3OCCO4)CC2)c2ccccc2C1", "valueOperator": "=", "experimentalValue": 6.60}
{"compound": "COc1cccc2c1C1CCN(CCCCN3C(=O)C4C5C=CC(C6C=CC65)C4C3=O)CC1C2.Cl (trans isomer)", "valueOperator": "=", "experimentalValue": 5.88}
{"compound": "N#CC1=Cc2cccc(OCC3CNCCO3)c2CC1 (racemic)", "valueOperator": "=", "experimentalValue": 6.35}
{"compound": "COc1ccccc1N1CCN(CCN2C(=O)CC3(CCCC3)CC2=O)CC1", "valueOperator": "<", "experimentalValue": 5.00}
{"compound": "C1=C(CN2CCOCC2)COc2c1cccc2OC[C@H]1CNCCO1.CS(=O)(=O)O", "valueOperator": "=", "experimentalValue": 7.33}
{"compound": "COc1ccc(NC(=O)c2ccc(-c3ccc(C(=O)N(C)C)cc3C)cc2)cc1N1CCN(C)CC1", "valueOperator": "=", "experimentalValue": 8.20}
{"compound": "C1=C(CCN2CCN(c3cccc4c3OCCO4)CC2)c2ccccc2CCC1", "valueOperator": "=", "experimentalValue": 6.42}
{"compound": "[2H]c1c([2H])c([2H])c([C@@H]2C[C@@H](N3CCN(C([2H])([2H])[2H])C(C)(C)C3)c3cc(Cl)ccc32)c([2H])c1[2H]", "valueOperator": "=", "experimentalValue": 6.77}
{"compound": "CN1C2CCCC1CC(NC(=O)c1nn(C)c3ccccc13)C2 (stereo not drawn)", "valueOperator": "<", "experimentalValue": 6.00}
{"compound": "CCC(C)Oc1ccccc1N1CCN(Cc2ccc(CN3CCCCC3=O)n2C)CC1 (stereo not drawn)", "valueOperator": "=", "experimentalValue": 7.35}
{"compound": "COc1cccc2c1C1CCN(CCCN3C(=O)c4ccccc4S3(=O)=O)CC1C2 (stereo not drawn)", "valueOperator": "=", "experimentalValue": 6.07}
{"compound": "CNC(=O)Cn1c2c(c3ccccc31)CCN(CCCCC13CCCc4cccc(c41)NC3=O)C2 (stereo not drawn)", "valueOperator": "<", "experimentalValue": 6.00}
{"compound": "O=C(C1=Cc2cccc(OCC3CNCCO3)c2OC1)N1CCOCC1 (stereo not drawn)", "valueOperator": "=", "experimentalValue": 6.62}
{"compound": "CCCN(CCC)C1CCc2cc3ccccc3c(O)c2C1 (stereo not drawn)", "valueOperator": "<", "experimentalValue": 6.00}
{"compound": "COc1ccc(C(=O)Nc2ccc(-c3ccc(-c4noc(C)n4)cc3C)cc2)cc1N1CCN(C)CC1", "valueOperator": "=", "experimentalValue": 8.20}
{"compound": "C1=C(CN2CCOCC2)COc2c1cccc2OC[C@@H]1CNCCO1.Cl", "valueOperator": "=", "experimentalValue": 6.56}
{"compound": "COc1ccc(NC(=O)c2ccc(-c3ccc(-c4noc(C)n4)cc3C)cc2)cc1N1CCN(C)CC1", "valueOperator": "=", "experimentalValue": 8.50}
{"compound": "COc1ccc2c(c1)C(CCN1CCN(c3cccc4c3OCCO4)CC1)C2 (stereo not drawn)", "valueOperator": "=", "experimentalValue": 6.50}
{"compound": "c1ccc2c(c1)CC2CN1CCN(c2cccc3ccoc23)CC1 (stereo not drawn)", "valueOperator": "=", "experimentalValue": 6.04}
{"compound": "COc1cccc2c1[C@@H]1CCN(CCCCN3C(=O)CC4(CCCC4)CC3=O)C[C@@H]1C2", "valueOperator": "=", "experimentalValue": 4.87}
{"compound": "CN1CCN(c2nc3ccccc3c3c2CC2CCC3C2)CC1 (stereo not drawn)", "valueOperator": "=", "experimentalValue": 5.64}
{"compound": "Cc1nc[nH]c1Cc1nc(-c2ccccc2)cs1", "valueOperator": "<", "experimentalValue": 6.00}
{"compound": "[2H]c1c([2H])c([2H])c([C@@H]2C[C@@H](N3CCNC(C)(C)C3)c3cc(Cl)ccc32)c([2H])c1[2H]", "valueOperator": "=", "experimentalValue": 6.18}
{"compound": "COc1cccc2c1[C@@H]1CCN(CCCCN3C(=O)CC4(CCCC4)CC3=O)C[C@H]1C2", "valueOperator": "=", "experimentalValue": 6.10}
{"compound": "Clc1cccc2c1CC2CCCN1CCN(c2cccc3c2OCCO3)CC1 (stereo not drawn)", "valueOperator": "=", "experimentalValue": 5.96}
